In this section we review reported solubility kinetic values for a set of compounds.
settings: buffer; pH 7.4; 200.0 µM

Recorded results for 8 compounds are shown here.
Nc1ccc(S(=O)(=O)C(F)(F)F)cc1N :: > 36 µg/mL
Cn1c(C2=C(O)CN(Cc3ccccc3)C2=N)nc2ccccc21 :: > 47.8 µg/mL
CC(=O)N(c1ccccc1C)S(=O)(=O)c1ccc(Cl)cc1 :: 34.3 µg/mL
CC1CC(C#N)N(N(C)C)C1=C(C#N)C#N (stereo not drawn) :: > 32.3 µg/mL
CSc1nc2sc3c(c2c(=S)[nH]1)CC(C)(C)OC3 :: 10.6 µg/mL
COc1cc(NC(N)=S)c(OC)cc1Cl :: > 37 µg/mL
COc1cc(C(=O)NNC(=O)C2CCCC2)cc(OC)c1OC :: > 48.4 µg/mL
CC(=O)OCC(=O)Nc1ccc(SC(F)F)cc1 :: > 41.3 µg/mL

Ask: For the compound Cc1ccc(/C=C2\SC(=S)N(C3CCS(=O)(=O)C3)C2=O)cc1 (stereo not drawn) , give its reported solubility kinetic.
Reply: < 0.8 µg/mL

Ask: For the compound `CC(=O)N1CCN(C(=O)c2cc3ccccc3o2)CC1` , give its reported solubility kinetic.
Reply: > 40.8 µg/mL
